Across several publications, the following IC50 results were reported for 5-hydroxytryptamine receptor 2A (Bos taurus, UniProt Q75Z89).
// classify: if (IC50 < 10 µM) Satisfied else Not satisfied

Worked set:
# compound, assayed.system, label.class
rows = [
    ("Cn1c(=O)sc2cc(CCN3CCN(c4cccc(C(F)(F)F)c4)CC3)ccc21", "5-hydroxytryptamine receptor 2A (Bos taurus, UniProt Q75Z89)", "Satisfied"),
    ("CN1CCN(c2nc3ccsc3n3cccc23)CC1", "5-hydroxytryptamine receptor 2A (Bos taurus, UniProt Q75Z89)", "Satisfied"),
    ("Clc1ccc2c(c1)nc(N1CCN(Cc3ccc4c(c3)OCO4)CC1)c1cccn12", "5-hydroxytryptamine receptor 2A (Bos taurus, UniProt Q75Z89)", "Not satisfied"),
]

Criterion: IC50 strictly below 10 µM. Is it met by O=c1[nH]c2ccc(CCCCN3CCN(c4cccc(C(F)(F)F)c4)CC3)cc2s1 ?
Satisfied

Criterion: IC50 strictly below 10 µM. Is it met by CCOC(=O)N1CCN(c2nc3ccsc3n3cccc23)CC1 ?
Not satisfied

Criterion: IC50 strictly below 10 µM. Is it met by c1ccc(CN2CCN(c3nc4scc(-c5ccccc5)c4n4cccc34)CC2)cc1 ?
Not satisfied

Criterion: IC50 strictly below 10 µM. Is it met by c1cnc2c(c1)nc(N1CCN(Cc3ccc4c(c3)OCO4)CC1)c1cccn12 ?
Not satisfied

Criterion: IC50 strictly below 10 µM. Is it met by COc1ccc2c(c1)nc(N1CCN(Cc3ccc(F)cc3)CC1)c1cccn12 ?
Not satisfied

Criterion: IC50 strictly below 10 µM. Is it met by CCCN(CCCCN1C(=O)CC2(CCCC2)CC1=O)C1COc2cccc(O)c2C1 (stereo unspecified) ?
Satisfied

Criterion: IC50 strictly below 10 µM. Is it met by Cn1c(=O)sc2cc(CCN3CCN(c4ccccc4)CC3)ccc21 ?
Satisfied

====

Across several publications, the following pIC50 results were reported for 5-hydroxytryptamine receptor 2A (Bos taurus, UniProt Q75Z89).
Reminder that pIC50 means the negative base-10 logarithm of the concentration expressed in mol/L.

Sample answers from the record:
# molecule, assayed.system, measured.value
rows = [
    ("Fc1ccc(CN2CCN(Cc3nc4ccsc4n4cccc34)CC2)cc1", "5-hydroxytryptamine receptor 2A (Bos taurus, UniProt Q75Z89)", 4.86),
    ("CN1CCN(c2nc3sc(-c4ccccc4)cc3n3cccc23)CC1", "5-hydroxytryptamine receptor 2A (Bos taurus, UniProt Q75Z89)", 4.86),
    ("CCCN(CCCCN1CC2CCCC2C1=O)C1COc2cccc(OC)c2C1 (stereo unspecified)", "5-hydroxytryptamine receptor 2A (Bos taurus, UniProt Q75Z89)", 5.70),
]

Let me check: Fc1ccc(CN2CCN(Cc3nc4ccccc4n4cccc34)CC2)cc1 , system 5-hydroxytryptamine receptor 2A (Bos taurus, UniProt Q75Z89), measured pIC50 is 4.77

Let me check: C[N+]1(Cc2ccccc2)CCN(c2nc3ccsc3n3cccc23)CC1 , system 5-hydroxytryptamine receptor 2A (Bos taurus, UniProt Q75Z89), measured pIC50 is 4.76

====

Across several publications, the following IC50 results were reported for 5-hydroxytryptamine receptor 2A (Bos taurus, UniProt Q75Z89).

# molecule, assayed.system, measured.value
rows = [
    ("CCCN(CCN1C(=O)CC2(CCCC2)CC1=O)C1COc2cccc(OC)c2C1 (stereo unspecified)", "5-hydroxytryptamine receptor 2A (Bos taurus, UniProt Q75Z89)", "> 1000 µM"),
    ("CCCN(CCCCN1CCCCC1)C1COc2cccc(OC)c2C1 (stereo unspecified)", "5-hydroxytryptamine receptor 2A (Bos taurus, UniProt Q75Z89)", "> 1000 µM"),
    ("CCCN(CCN1C(=O)c2ccccc2C1=O)C1COc2cccc(OC)c2C1 (stereo unspecified)", "5-hydroxytryptamine receptor 2A (Bos taurus, UniProt Q75Z89)", "> 100 µM"),
]

Let me check: Fc1ccc(CN2CCN(c3nc4cc(Cl)ccc4n4cccc34)CC2)cc1 , system 5-hydroxytryptamine receptor 2A (Bos taurus, UniProt Q75Z89), measured IC50 is > 100 µM

Let me check: CCC[N+](C)(CCCCN1C(=O)CC2(CCCC2)CC1=O)C1COc2cccc(OC)c2C1 (stereo unspecified) , system 5-hydroxytryptamine receptor 2A (Bos taurus, UniProt Q75Z89), measured IC50 is > 1000 µM

Let me check: CCOC(=O)N1CCN(c2nc3cccnc3n3cccc23)CC1 , system 5-hydroxytryptamine receptor 2A (Bos taurus, UniProt Q75Z89), measured IC50 is > 100 µM

Let me check: Clc1ccc(C(c2ccccc2)N2CCN(c3nc4ccsc4n4cccc34)CC2)cc1 (stereo unspecified) , system 5-hydroxytryptamine receptor 2A (Bos taurus, UniProt Q75Z89), measured IC50 is > 100 µM
